# assay.system: HRgpA-6H (Porphyromonas gingivalis) (UniProt P28784)
# protocol.description: ELISA, Fab FASEBA supernatant on coated HRgpA-6H
OD450nm overview
Dear colleague, please return just the value in OD450nm, with no unit written.

INSERT INTO assay_data (binder, data_value) VALUES
  ('parental mouse (KB001) Fab FASEBA, VL variant Y97K (Fab, V domains shown) VH: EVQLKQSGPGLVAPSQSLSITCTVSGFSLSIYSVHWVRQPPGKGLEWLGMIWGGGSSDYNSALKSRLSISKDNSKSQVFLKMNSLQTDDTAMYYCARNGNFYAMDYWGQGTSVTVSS VL: QIVLTQSPAIMSASLGERVTMTCTASSSVSSSFLHWYQQKPGSSPQLWIYSTSNLASGVPARFSGSGSGTSYSLTISSMEAEDAATYYCHQYHHSPKIYTFGGGTKLEIK', 0.654),
  ('parental mouse (KB001) Fab FASEBA, VL variant A56Q (Fab, V domains shown) VH: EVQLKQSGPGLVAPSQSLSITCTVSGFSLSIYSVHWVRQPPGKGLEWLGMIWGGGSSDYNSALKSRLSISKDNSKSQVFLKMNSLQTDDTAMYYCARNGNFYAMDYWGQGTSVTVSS VL: QIVLTQSPAIMSASLGERVTMTCTASSSVSSSFLHWYQQKPGSSPQLWIYSTSNLQSGVPARFSGSGSGTSYSLTISSMEAEDAATYYCHQYHHSPYIYTFGGGTKLEIK', 0.705),
  ('parental mouse (KB001) Fab FASEBA, VL variant A56T (Fab, V domains shown) VH: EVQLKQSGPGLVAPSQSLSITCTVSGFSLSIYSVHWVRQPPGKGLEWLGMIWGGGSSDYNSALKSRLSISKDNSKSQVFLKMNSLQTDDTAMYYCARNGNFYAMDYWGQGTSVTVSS VL: QIVLTQSPAIMSASLGERVTMTCTASSSVSSSFLHWYQQKPGSSPQLWIYSTSNLTSGVPARFSGSGSGTSYSLTISSMEAEDAATYYCHQYHHSPYIYTFGGGTKLEIK', 0.731),
  ('parental mouse (KB001) Fab FASEBA, VL variant S57A (Fab, V domains shown) VH: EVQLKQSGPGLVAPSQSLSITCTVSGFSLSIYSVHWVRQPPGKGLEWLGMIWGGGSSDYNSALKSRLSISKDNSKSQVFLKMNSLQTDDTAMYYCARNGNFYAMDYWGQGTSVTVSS VL: QIVLTQSPAIMSASLGERVTMTCTASSSVSSSFLHWYQQKPGSSPQLWIYSTSNLAAGVPARFSGSGSGTSYSLTISSMEAEDAATYYCHQYHHSPYIYTFGGGTKLEIK', 0.806);

Then there is this binder:
Query: Look up OD450nm: parental mouse (KB001) Fab FASEBA, VL variant Y97H (Fab, V domains shown) VH: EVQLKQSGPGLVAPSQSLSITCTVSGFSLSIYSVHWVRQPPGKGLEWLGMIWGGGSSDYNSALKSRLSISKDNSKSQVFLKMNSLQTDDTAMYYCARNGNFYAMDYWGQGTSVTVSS VL: QIVLTQSPAIMSASLGERVTMTCTASSSVSSSFLHWYQQKPGSSPQLWIYSTSNLASGVPARFSGSGSGTSYSLTISSMEAEDAATYYCHQYHHSPHIYTFGGGTKLEIK
Reply: 0.775

All figures here come from patent US20230365662A1.
